Origin of values: PubChem BioAssay

protocol: P. aeruginosa biofilm formation inhibitors, primary screen, PAO1 strain, BacTiter-Glo luminescence, LB-PBS (AID 1144)
assay_context: 12 h, higher = more signal
# z-score >= 0.8 gives 1 (yes), anything below gives 0 (no)

The examples below pair each entry with its known result.
- compound: "CCC[C@@H]1C=C(C(=O)OCC)[C@H](c2ccccc2)N1S(=O)(=O)c1ccc(C)cc1"
  label_value: "1 (yes)"
- compound: "CC(C)C[C@H]1NC(=O)[C@H](Cc2ccccc2)NC(=O)[C@@]23C(=O)N[C@@H](Cc4ccccc4)C2[C@H](C)[C@@]2(C)O[C@H]2C3/C=C/C/C=C\\CNC1=O (stereo partly specified)"
  label_value: "0 (no)"
- compound: "O=C1C2C=CC(C(O)C(c3ccccc3)c3ccccc3)N(Nc3ccccc3)C2C(=O)N1c1ccccc1 (stereo unspecified)"
  label_value: "0 (no)"
- compound: "CCCCC(O)C1C=CC2C(=O)NC(=O)C2N1Nc1ccc(Cl)cc1Cl (stereo unspecified)"
  label_value: "0 (no)"

Kindly consider the entry below.
Input: Please tell me: is the compound CCCCC(=C=CC[C@H](O)c1ccc(OCCO)cc1)C[C@H](O)c1ccccn1 at or over 0.8 in terms of z-score?
Output: 0 (no)

====

Reported z-score by item:
protocol: yeast growth modulation, basal conditions, primary screen, YJM789 clinical isolate, OD600, 24 h (AID 1089);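 also: growth of clinical yeast isolate S. cerevisiae YJM 789 seeded 1000 cells per well; test concentration not given here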
assay_context: S. cerevisiae YJM789 growth, higher = more signal, called active from +8 up or from −8 down
Please state the value as a number alone, without comment.

- compound: "CC(C)C[C@H]1NC(=O)[C@@]23C(=O)N[C@@H](Cc4ccccc4)C2[C@H](C)[C@@]2(C)O[C@H]2C3/C=C/C/C=C\\CNC(=O)[C@@H]2CCCN2C1=O (some centres not stated)"
  z-score: -0.397
- compound: "COc1ccc(C(O)C2C=CC3C(=O)N(C)C(=O)C3N2Nc2ccc([N+](=O)[O-])cc2[N+](=O)[O-])cc1OCc1ccccc1 (configuration not stated)"
  z-score: 0.932
- compound: "CC(C)(C)N1CC=CC23O[C@@H]4/C=C\\CCCOC(=O)C4[C@H]2C(=O)N(CCCCCCO)[C@@H]3C1=O (some centres not stated)"
  z-score: -3.01
- compound: "CCOC(=O)C[C@H]1[C@H](OC(=O)Cc2ccc3c(c2)OCO3)[C@@H](NC(=O)c2ccccc2)c2cc(OCCCO)ccc2N1C(=O)Cc1ccc(OC)cc1"
  z-score: -2.62
- compound: "CC(C)CNC(=O)[C@@H]1c2ccccc2C(=O)N(CC23CC4CC(CC(C4)C2)C3)[C@H]1c1ccc(CO)cc1"
  z-score: -0.998
- compound: "COc1ccc([Si](C)(C)[C@H]2[C@H](CCO)O[C@@]3(C(=O)N(Cc4ccccc4)c4ccc(N(C=O)c5ccccc5)cc43)[C@@H]2C)cc1"
  z-score: -0.347
- compound: "CCOC(=O)C1=CCC(c2cc3ccccc3[nH]2)N(S(=O)(=O)c2ccccc2[N+](=O)[O-])C1 (configuration not stated)"
  z-score: -0.134
- compound: "C=CCC(OC(C)=O)[C@@H]1[C@@H](N(Cc2cc3ccccc3o2)C(=O)c2ccc(-c3ccccc3)cc2)c2cc(OCCCO)ccc2N1C(=O)c1ccc2ccccc2n1 (some centres not stated)"
  z-score: 0.806
- compound: "COc1cccc(OC)c1C(=O)O[C@H]1[C@@H]2OC(=O)[C@H](Cc3cccc(Br)c3)C/C=C/C[C@@H](Cc3cccc(Br)c3)C(=O)O[C@H]2[C@@H](OC)O[C@@H]1CO"
  z-score: -0.372
- compound: "COCCOC(=O)N1C(=O)[C@@]2(c3cc(C#CC4=CCCCC4)ccc31)[C@H](C(=O)N1CCc3cc(OC)c(OC)cc3C1)[C@H]1C(=O)O[C@H](c3ccccc3)[C@H](c3ccccc3)N1[C@@H]2c1ccc(O)cc1"
  z-score: 1.68

Input: # query: z-score of entry O=C1C2C=CC(C(O)c3ccc([N+](=O)[O-])cc3)N(Nc3ccccc3)C2C(=O)N1c1ccccc1 (configuration not stated)
Output: -0.247

Input: # query: z-score of entry C=CCOC(=O)[C@H]1[C@@H]2C(=O)O[C@@H](c3ccccc3)[C@@H](c3ccccc3)N2[C@@H](c2ccc(OCCOC(=O)[C@@H]3C[C@@H]4C(=O)N[C@@H](Cc5ccccc5)C(=O)N4[C@@H]3c3ccc(O)cc3)cc2)[C@]12C(=O)Nc1ccccc12
Output: 0.455

====

test_target: Torsin-1A (Homo sapiens)
protocol: small-molecule binders of mutant TOR1A in lysate, primary screen, cell lysate, small-molecule microarray, COS7 lysate, 635/667 nm fluorescence (AID 1150);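 also: score pools 667 nm emission and signal to noise measuring lysate protein binding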
assay_context: COS7 hTOR1A mutant lysate, 635 nm fluorescence, higher = more signal
Reported composite z-score by item:
Please state the value as a number alone, without comment.

- compound: "COCCCNC(=O)[C@@H]1c2ccccc2C(=O)N(C2CCCCC2)[C@H]1c1ccc(CO)cc1"
  composite z-score: -1.51
- compound: "CC(C)C[C@@H]1NC(=O)[C@@H]2C[C@H](C(=O)O)[C@H](c3ccc(O)cc3)N2C1=O"
  composite z-score: 1.05
- compound: "CC(=O)c1ccc(C(O)C2C=CC3C(=O)N(C)C(=O)C3N2NC(=O)OC(C)(C)C)cc1 (stereo not given)"
  composite z-score: 0.548
- compound: "C/C=C/CN(C(=O)C#Cc1ccccc1)[C@H](CO[Si](C)(C)C(C)(C)C)c1ccccc1"
  composite z-score: -0.841
- compound: "C[C@@H](OCc1ccccc1)C1NC(=O)[C@@]23C(=O)N[C@@H](Cc4ccccc4)C2[C@H](C)[C@@]2(C)O[C@H]2C3/C=C/C/C=C\\CNC(=O)[C@H](Cc2ccccc2)NC1=O (stereo not given in full)"
  composite z-score: 0.293

Input: # query: composite z-score of entry COCCCNC(=O)[C@@H]1c2ccccc2C(=O)N(Cc2cc(C(F)(F)F)cc(C(F)(F)F)c2)[C@H]1c1ccc(CO)cc1
Output: 0.7

Input: # query: composite z-score of entry C=C(CCCC)/C(=C/C[C@H](OC(C)=O)c1cccc(OCCO)c1)c1cc(C(=O)OC)ccc1OC
Output: -0.426

Input: # query: composite z-score of entry CCCCCCCCCCC(O)C1C=CC2C(=O)N(C)C(=O)C2N1N1CCCCC1 (stereo not given)
Output: 0.522

Input: # query: composite z-score of entry CN(C)CCCC[C@@H]1NC(=O)[C@H]2C[C@@H](C(=O)NCc3ccc(F)cc3)[C@@H](c3ccc(O)cc3)N2C1=O
Output: 0.587

Input: # query: composite z-score of entry CC(C)(C)N1CC=CC23O[C@@H]4/C=C\CCCOC(=O)C4[C@H]2C(=O)N(CCCCCCO)[C@@H]3C1=O (stereo not given in full)
Output: 0.488

Input: # query: composite z-score of entry C=CCC(OC(C)=O)[C@@H]1[C@@H](N(Cc2ccc(-c3cccc(C(F)(F)F)c3)o2)C(=O)c2cccc3ccccc23)c2cc(OCCCO)ccc2N1C(=O)c1ccc2ccccc2n1 (stereo not given in full)
Output: -0.662

Input: # query: composite z-score of entry CN(C)CCCNC(=O)[C@@H]1c2ccccc2C(=O)N(C2Cc3ccccc3C2)[C@H]1c1ccc(CO)cc1
Output: 0.802

Input: # query: composite z-score of entry COCCOC(=O)N1C(=O)[C@@]2(c3ccccc31)[C@H](c1ccc(OCCO)cc1)N1[C@H](c3ccccc3)[C@H](c3ccccc3)OC(=O)[C@H]1[C@@H]2C(=O)N1CCN(c2ncccn2)CC1
Output: 0.794

Input: # query: composite z-score of entry C=C(COC)/C(=C/C[C@H](OC(=O)c1ccncc1)c1ccc(OCCO)cc1)c1cc(C(=O)OC)ccc1OC
Output: 0.132

Input: # query: composite z-score of entry CN1C=C(C(=O)OCCS(C)(=O)=O)C(C(=O)OCCS(C)(=O)=O)=CC(CCCO)=CC1c1ccc(CN2CCCC2)cc1 (stereo not given)
Output: 1.19

====

protocol: small-molecule microarray binders of probe aNog, primary screen, biochemical, biotinylated probe, 635/667 nm fluorescence (AID 1115);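 also: probe is biotinylated aNog protein used at 0.15 µg/mL for 1 h at 4 C; z-score combines 667 nm fluorescence of each spot with its signal to noise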
assay_context: higher = more signal
Each entry belongs to exactly one class, chosen by where its composite z-score falls: bottom end (below -0.1), midrange (-0.1 to below 0.6), top end (0.6 or more)

The examples below pair each entry with its known result.
- molecule: "NC(=O)[C@@]1(CCS(=O)(=O)c2ccccc2)COC(c2ccc(OCCCO)cc2)=N1"
  label_value: "bottom end"
- molecule: "CCCC=C(CCC)[C@@H](NC(=O)c1ccccc1)c1ccc(C(=O)OC)cc1"
  label_value: "top end"
- molecule: "CCOC(=O)C[C@H]1[C@H](OC(=O)c2ccc(-c3ccccc3)cc2)[C@@H](NC(=O)c2ccc3ccccc3c2)c2cc(OCCCO)ccc2N1C(=O)c1ccccc1"
  label_value: "midrange"
- molecule: "COCCOC(=O)N1C(=O)[C@@]2(c3cc(C#CC4(O)CCCCCC4)ccc31)[C@H](c1ccc(OCCO)cc1)N1[C@H](c3ccccc3)[C@H](c3ccccc3)OC(=O)[C@H]1[C@@H]2C(=O)N1CCCCCCC1"
  label_value: "top end"

Input: Which composite z-score category applies to CCCCC(=C=CC[C@@H](O)c1cccc(OCCO)c1)CCO here?
Output: bottom end

Input: Which composite z-score category applies to COc1ccc([Si](C)(C)[C@H]2[C@H](CCn3cc([C@H](O)c4ccccc4)nn3)O[C@@]3(C(=O)N(c4ccccc4)c4ccccc43)[C@@H]2C)cc1 here?
Output: bottom end

Input: Which composite z-score category applies to C=CCN1C(=O)[C@]2(O[C@H](CCO)[C@@H]([Si](C)(C)c3ccc(OC)cc3)[C@@H]2C)c2ccccc21 here?
Output: bottom end

Input: Which composite z-score category applies to CN(C)CCCCNC(=O)[C@H]1C[C@H]2C(=O)N[C@@H](Cc3ccccc3)C(=O)N2[C@H]1c1cccc(OCCO)c1 here?
Output: bottom end

Input: Which composite z-score category applies to C=CCOC(=O)[C@H]1[C@@H]2C(=O)O[C@@H](c3ccccc3)[C@@H](c3ccccc3)N2[C@@H](c2ccc(OCCOC(=O)[C@@H]3C[C@@H]4C(=O)N[C@@H](Cc5ccccc5)C(=O)N4[C@@H]3c3ccc(O)cc3)cc2)[C@]12C(=O)Nc1ccccc12 here?
Output: midrange

Input: Which composite z-score category applies to COCCOC(=O)N1C(=O)[C@@]2(c3cc(C#CC4(O)CCCCCC4)ccc31)[C@H](c1ccc(OCCO)cc1)N1[C@H](c3ccccc3)[C@H](c3ccccc3)OC(=O)[C@H]1[C@@H]2C(N)=O here?
Output: midrange
